Data origin: the nanobody polyreactivity screen of Harvey et al. (2022)

experiment: yeast display, Sf9 membrane polyspecificity reagent, FACS + sequencing; frameworks hold sequencing errors

{"chain": "QVQLVESGGGLVQAGGSLRLSCADSGSTFYGNVMGWYRQAPGKERELVAAITRGGTTNYADSVKGRFTISRDNAKNTVYLQMNSLKPEDTAVYYCAKASYWVQASNDYWGQGTQVTVSS", "polyreactivity (PSR sort gate)": "low polyreactivity"}
{"chain": "QVQLVESVGGLLQAGGSLRLSCAASGFTFSGNGRGWYRQAPGKERELVAAITSTGNTYYADSVKGRFTISRDNAKKTVYLQMNRLKPEDTAVYYCARRGDLLYDYWGQGTQVTVSS", "polyreactivity (PSR sort gate)": "low polyreactivity"}
{"chain": "QVQHVESGGGLVQAGGSLRLSCAASGRTSFNYTQGWYRQAPGKERELVAAITSGGDTYYADSVKGRFTISRDNAKNTVYLPMNSLKPEDTAVYYCAVDDLGSEYDYWGQGTQVTVSS", "polyreactivity (PSR sort gate)": "low polyreactivity"}
